Origin of measurements: PubChem BioAssay (Tox21)

system: Progesterone receptor (Homo sapiens)
assay_comment: qHTS assay to identify small molecule agonists of the progesterone receptor (PR) signaling pathway (AID 1346784); note: % is set by controls: 0 for no effect and ±100 for the full control effect; nearly all actives have a fitted effect of over 30% in size
test_parameters: PR-UAS-bla HEK293T, beta-lactamase FRET ratio, 16 h; series mostly up to 92.4 µM
Inconclusive results are not listed. Activity calls are given as the source filed them. Calls come from the whole dose curve.

{"columns": ["compound", "activation"],
 "data": [
  ["O=[N+]([O-])c1cccc2cccnc12", "inactive"],
  ["CCC#N", "inactive"],
  ["C(CCOCC1CO1)COCC1CO1 (configuration not stated)", "inactive"],
  ["O=C(CCCN1CCC(n2c(=O)[nH]c3ccccc32)CC1)c1ccc(F)cc1", "inactive"],
  ["CSc1ccc(C(=O)C(C)(C)N2CCOCC2)cc1", "inactive"],
  ["O=C1OC(=O)C2C1C1(Cl)C(Cl)=C(Cl)C2(Cl)C1(Cl)Cl (configuration not stated)", "inactive"],
  ["Nc1cnn(-c2ccccc2)c(=O)c1Cl", "inactive"],
  ["CC1(C)C(=O)NC(=O)NC1=O", "inactive"],
  ["O=C1OC(c2ccc(O)c(S(=O)(=O)O)c2)(c2ccc(O)c(S(=O)(=O)O)c2)c2c(Br)c(Br)c(Br)c(Br)c21", "inactive"],
  ["CC1=C(C(=O)O)N2C(=O)[C@@H](N)[C@H]2SC1", "-0.285% [at 19 µM] (inactive)"],
  ["CNC(=O)O/N=C(\\C)SC", "inactive"],
  ["CC(C1CC1)C(O)(Cn1cncn1)c1ccc(Cl)cc1 (configuration not stated)", "inactive"],
  ["CCS(=O)(=O)C(C)(C)S(=O)(=O)CC", "inactive"],
  ["CCCCOC(=O)c1ccccc1C(=O)O", "inactive"],
  ["O=C(O)c1ccc2[nH]cc(CCCCN3CC=C(c4ccccc4)CC3)c2c1", "inactive"],
  ["CC(C)(C)C(=O)C(Oc1ccc(Cl)cc1)n1cncn1 (configuration not stated)", "inactive"],
  ["C=CC1CC=CCC1 (configuration not stated)", "inactive"],
  ["C[N+](=O)[O-]", "inactive"],
  ["NC(=O)O", "inactive"],
  ["Oc1c(Cl)cccc1Cl", "inactive"],
  ["Nc1n[nH]c(N)n1", "inactive"],
  ["CC(C(O)c1ccccc1)N(C)C/C=C/c1ccccc1 (configuration not stated)", "inactive"],
  ["C[C@@H]1CN(C2CCC(C#N)(c3ccc(F)cc3)CC2)CC[C@]1(C(=O)O)c1ccccc1 (some centres not stated)", "inactive"],
  ["CCOc1nc(C(Cl)(Cl)Cl)ns1", "inactive"],
  ["CCOC(=O)C(c1c(O)c2ccccc2oc1=O)c1c(O)c2ccccc2oc1=O", "inactive"],
  ["Nc1cc2c3c(c1)C(c1ccccc1)=N[C@@H](NC(=O)c1cccnc1)C(=O)N3CC2", "inactive"],
  ["COC(=O)C1=CCCN(C)C1", "inactive"]
]}
